Below: a set of entries, each annotated with reported solubility kinetic.
Conditions: buffer; pH 7.4; 200.0 µM
Give just the number in mg/mL; leave the unit off.

COc1ccc(OC)c(NC(=O)COC(=O)C2CCCCC2)c1
0.0029
O=C(/C=C/c1ccccc1)Oc1coc(CSc2ncccn2)cc1=O
0.0102
COc1ccccc1C(=O)NC1CCSc2ccccc21 (centres undefined)
0.0315

Now, please, on to the next compound.
Which solubility kinetic is listed for O=C(CNC(=O)c1ccc(Br)o1)NCCc1ccc(F)cc1 ?
0.0398

###

Below: a set of entries, each annotated with reported solubility kinetic.
Conditions: buffer; pH 7.4; 200.0 µM
Give just the number in µg/mL; leave the unit off.

CN=C(Nc1cccc(S(=O)(=O)N2CCOCC2)c1)c1ccccc1
17.2
Cc1oncc1-c1csc(-c2ccccc2Cl)n1
0.6

Which solubility kinetic is listed for COc1ccc2nc(N3C(=O)CNC3=S)sc2c1 ?
19.5

###

Below: a set of entries, each annotated with reported solubility kinetic.
Settings: buffer; pH 7.4; 200.0 µM
Give just the number in µg/mL; leave the unit off.

Illustrative cases are given below, each with its answer.
COc1ccc(CCNC(=O)Nc2ccc3c(c2)OCO3)cc1OC
5.3
COc1ccc(OC)c(/C=C2\SC(N3CCCC(C)C3)=NC2=O)c1 (stereo not drawn)
22.1
CSc1ccc(NC(=O)NCc2ccccc2)cc1
1.4

Which solubility kinetic is listed for O=C(NCCNCc1cccs1)c1ccccc1F ?
37.6

Which solubility kinetic is listed for O=C(NCCc1ccccc1)C1CCC(=O)N1CCc1ccccc1 (stereo not drawn) ?
46.2

###

Conditions: buffer; pH 7.4; 200.0 µM
Below: a set of entries, each annotated with reported solubility kinetic.

Cc1ccc(NC(=O)CN(C)C(=O)COc2ccccc2-c2ccccc2)cc1
11.1 µg/mL
O=C(O)CC1c2ccccc2CCN1S(=O)(=O)c1cccs1 (centres undefined)
> 50.6 µg/mL
O=C1NC(=S)NC(=O)C1C1CCCCC1
30.1 µg/mL
Cc1ccccc1NS(=O)(=O)c1cccc2nsnc12
> 45.8 µg/mL
CC1(C)CC(=O)C2=C(C1)NC(=S)C(C#N)C21CCCCC1 (centres undefined)
> 45.4 µg/mL

Which solubility kinetic is listed for O=C(O)CN1C(=O)c2cccc3c(Br)ccc1c23 ?
> 45.9 µg/mL

Which solubility kinetic is listed for CCOC(=O)c1sc(CS(=O)(=O)c2ccc(Cl)cc2)nc1C ?
6.1 µg/mL

###

Conditions: buffer; pH 7.4; 200.0 µM
PROPERTY MEASURED: solubility kinetic (µg/mL)
Give just the number in µg/mL; leave the unit off.

Illustrative cases are given below, each with its answer.
COC(=O)/C(=C\C=C\c1ccccc1)NC(=O)c1ccccc1
6.3
O=C(CCc1nc2ccccc2c(=O)[nH]1)N1CCN(c2ccccc2Cl)CC1
3.2
Cc1ccnc(SCc2ccc([N+](=O)[O-])cc2)n1
29.7
Cc1ccc(SCCOCCN2CC(C)OC(C)C2)cc1.Cl (stereo unspecified)
42.5
O=C(CN1CCOCC1)Nc1ccccc1C(=O)Nc1ccccc1
39.1

Now, please, on to the next compound.
Which solubility kinetic is listed for O=C(/C=C/c1cccc(F)c1)Nc1ccc(S(=O)(=O)N2CCOCC2)cc1 ?
1

###

Below: a set of entries, each annotated with reported solubility kinetic.
Details: buffer; pH 7.4; 200.0 µM
Give just the number in µg/mL; leave the unit off.

Illustrative cases are given below, each with its answer.
Cc1cccc(NS(=O)(=O)c2ccc3[nH]c(=O)cc(C(=O)O)c3c2)c1
48.2
CC(=O)N=c1c(C#N)cc2c(=O)n3cccc(C)c3nc2n1Cc1ccco1
5.1

Which solubility kinetic is listed for COc1cccc(N2C(=O)CN(Cc3ccccc3)C2=S)c1 ?
24.9
